Parameter GI50: see the listing below.
- Test system: DU-145
- assay.procedure: NCI tumour cell line growth inhibition, 48 h
Active and inactive are the calls of the source. No stated cut-off is given here; in the data, active = GI50 up to about 1.1 µM and inactive = higher.

Qu. Find the recorded GI50 belonging to Clc1ccc(-c2cc(-c3nc4ccccc4[nH]3)no2)cc1 and report it.
Ans. 11.4 µM (inactive)

Qu. And for CC1CCCN(CP(=O)(c2ccccc2)c2ccccc2)C1 (centres undefined) ?
Ans. > 100 µM (inactive)

Qu. C=C(C)COc1cc(/N=C(/S)OC(C)C)ccc1Cl ?
Ans. 16.7 µM (inactive)

Qu. Then this molecule: O=C(/N=N/c1cc(Cl)ccc1Cl)NNc1cc(Cl)ccc1Cl
Ans. 30.3 µM (inactive)

Qu. Same lookup for Cc1nc(C)c(N2CCN(S(=O)(=O)N(Cc3ccccc3)Cc3ccccc3)CC2)c(O)n1 , please.
Ans. > 59.4 µM (inactive)

Qu. Lookup Cc1nn(C(=O)c2ccc(Cl)cc2)c2c1C(c1ccc(Cl)cc1)SC(=N)N2 (centres undefined)
Ans. > 10 µM (inactive)

Qu. Another molecule to check: O=C(O)CC(C(=O)O)C1c2ccccc2-c2ccccc21 (centres undefined)
Ans. 17.9 µM (inactive)

Qu. Likewise for C=C1CCN2CC[C@@H](OC(=O)/C(C)=C\C)[C@@H]12 ?
Ans. > 100 µM (inactive)

Qu. Query Cc1cc(C)nc(NS(=O)(=O)c2ccc(NC(=O)c3cccc4c(NNc5ccc(S(=O)(=O)N=C(N)N)cc5)c5ccccc5nc34)cc2)n1 next
Ans. > 50 µM (inactive)

* * *

- System: HL-60
- assay.procedure: NCI tumour cell line growth inhibition, 48 h
Calls of active or inactive are those of the source. No stated cut-off is given here; in the data, active = GI50 up to about 1.1 µM and inactive = higher.
Your response should consist of one outcome taken from y for active, n for inactive

compound | class
Clc1ccc(-n2nnc(C3=NCCN3)c2-c2ccccc2)cc1 | n
O=C1N2CCc3c([nH]c4ccccc34)C23CC2CCCC12S3 (stereo unspecified) | n
CC1(C)C[C@@H]2C1CCC1(C)CC2(O)CC[C@H]1O (stereo partly specified) | n
OC(CN(CCCl)CCCl)C(O)C(O)C(O)CN(CCCl)CCCl (stereo unspecified) | n

Qu. How did this test come out for Oc1ccc2ccccc2c1-c1nnc(CCCCCCCCc2nnc(-c3c(O)ccc4ccccc34)o2)o1 ?
Ans. y

Qu. Follow-up entry: OCCN1CCN(c2nc(N3CCCC3)c3nc(Cl)c(NCc4ccccc4)nc3n2)CC1
Ans. n

Qu. Field entry: O=P1(O)C=CC2(CCCC2)O1
Ans. n

* * *

- Tested on: SK-MEL-2
- assay.procedure: NCI tumour cell line growth inhibition, 48 h
Active and inactive are the calls of the source. Rule as the data show it: active = GI50 up to about 1.1 µM and inactive = higher.
Pick one: active, inactive

Study these solved cases before continuing.
compound | assay.system | class
CC(C)=CCC1=C(O)C(=O)c2ccccc2C1=O [LAPACHOL] | SK-MEL-2 | inactive
COCC(=O)[C@]1(O)Cc2c(O)c3c(c(O)c2[C@@H](OC2CC(N)C(O)C(C)O2)C1)C(=O)c1c(OC)cccc1C3=O (some centres undefined) | SK-MEL-2 | active
COc1cc2c3c(c1OC)Oc1ccc(cc1)CC1c4c(cc(OC)c(OC)c4Oc4ccc(cc4)CC3N(C)CC2)CCN1C (centres undefined) | SK-MEL-2 | inactive

--- query ---
Qu. Test call for this compound, please: NS(=O)(=O)c1ccc(Nc2c3ccccc3nc3c(C(=O)N4CCN(CCO)CC4)cccc23)cc1
Ans. inactive
